Origin of the recorded values: patent US20240190880A1

STUDY SYSTEM: ER (Homo sapiens)
Construct: host or cells: T47D and MCF7 human breast cancer cells
MEASUREMENT DESCRIPTION: ER degradation activity, in-cell western blot analysis in T47D cells
Type: cell-based
PARTICULARS: 16 hours, Table A does not say which cell line (T47D or MCF7), read-out: Potency (DC50)
ENDPOINT NAME: DC50

// solved cases for DC50 follow
COMPOUND | STUDY SYSTEM | DC50
O=C1CCC(N2C(=O)c3cc4c(cc3C2=O)CN(C2CCN(CC3(F)CN(c5ccc([C@@H]6c7ccc(O)cc7CC[C@@H]6c6ccccc6)cc5)C3)CC2)C4)C(=O)N1 (stereo partly shown) | ER (Homo sapiens) | > 0.1 µM
O=C1CCC(N2C(=O)c3cc4c(cc3C2=O)CN([C@H]2CC[C@H](NC3CN(c5ccc([C@@H]6c7ccc(O)cc7CC[C@@H]6c6ccccc6)cc5)C3)CC2)C4)C(=O)N1 (stereo partly shown) | ER (Homo sapiens) | > 0.1 µM
O=C1CCC(N2C(=O)c3cc4c(cc3C2=O)CN(C(=O)CN2CCC3(CC2)CCN(c2ccc([C@@H]5c6ccc(O)cc6CC[C@@H]5c5ccccc5)cc2)CC3)C4)C(=O)N1 (mixture of isomers) | ER (Homo sapiens) | 0.01 to 0.1 µM
O=C1CCC(N2C(=O)c3cc4c(cc3C2=O)CN(Cc2ccc(N3CCN(c5ccc([C@@H]6c7ccc(O)cc7CC[C@@H]6c6ccccc6)cc5)CC3)nc2)C4)C(=O)N1 (stereo partly shown) | ER (Homo sapiens) | > 0.1 µM
O=C1CCC(N2C(=O)c3cc4c(cc3C2=O)CN(C(=O)CN2CCC3(CC2)CCN(c2ccc(C(=C(CCCl)c5ccccc5)c5ccc(O)cc5)cc2)CC3)C4)C(=O)N1 (stereo not shown) | ER (Homo sapiens) | 0.01 to 0.1 µM
C[C@@H]1Cc2c([nH]c3ccccc23)[C@@H](c2c(F)cc(N3CCC4(CN(C(=O)CN5Cc6cc7c(cc6C5)C(=O)N(C5CCC(=O)NC5=O)C7=O)C4)C3)cc2F)N1CC(F)F (stereo partly shown) | ER (Homo sapiens) | < 0.01 µM
C[C@@H]1Cc2c([nH]c3ccccc23)[C@@H](c2c(F)cc(C3CCN(C(=O)[C@H]4CC[C@H](N5Cc6cc7c(cc6C5)C(=O)N(C5CCC(=O)NC5=O)C7=O)CC4)CC3)cc2F)N1CC(F)F (stereo partly shown) | ER (Homo sapiens) | < 0.01 µM
O=C1CCC(N2C(=O)c3cc4c(cc3C2=O)CN(C(=O)CN2CCC3(CC2)CCN(c2c(F)cc([C@@H]5c6ccc(O)cc6CC[C@@H]5c5ccccc5)cc2F)C3)C4)C(=O)N1 (mixture of isomers) | ER (Homo sapiens) | > 0.1 µM
O=C1CCC(N2C(=O)c3cc4c(cc3C2=O)CN(CC(=O)N2CCC3(CC2)CCN(c2ccc(C(=C(CCCl)c5ccccc5)c5ccc(B(O)O)cc5)cc2)CC3)C4)C(=O)N1 (stereo not shown) | ER (Homo sapiens) | 0.01 to 0.1 µM

Attention now turns to another entry.
Task item: Dear colleague, please send me the reported DC50 for C[C@@H]1Cc2c([nH]c3ccccc23)[C@@H](c2c(F)cc(-c3cnc(C(=O)N4CCC(N5Cc6cc7c(cc6C5)C(=O)N(C5CCC(=O)NC5=O)C7=O)CC4)nc3)cc2F)N1CC(F)F (stereo partly shown) when you can.
Reply: 0.01 to 0.1 µM
